growth values, listed per item
Tested on: OVCAR-3 ovarian
method_description: NCI-60 one-dose screen, 48 h (100 = growth as untreated, 0 = no growth, -100 = all killed)
conditions: 10 µM unless noted
Procedure: Growth inhibition of the OVCAR-3 human tumor cell line is measured as a screen for anti-cancer activity. Cells are grown in 96 well plates and exposed to the test compound for 48 hours. Compounds are tested at a single concentration, which is 10^-5 M for most compounds. The reported endpoint is percent growth (GI% or GIPRCNT), where numbers from 0 - 100% represent growth inhibition, and numbers from -100% - 0 represent cell death. For example, a value of 40 represents 60% growth inhibition. […]
The panel holds about 83,000 compounds, 20% with a hit somewhere; the sample as a whole holds those more often.
Answer format: numeric, % implied, no suffix.

Observe how each entry below is paired with its result.
{"compound": "CCSc1ccc([C@@H]2[C@@H](N)C(=O)N2c2cc(OC)c(OC)c(OC)c2)cc1", "study_target": "OVCAR-3 ovarian", "growth [%]": -23.8}
{"compound": "CCCCNCCC(O)c1cc2ccc(C(F)(F)F)cc2c2cc(C(F)(F)F)ccc12 (configuration not stated)", "study_target": "OVCAR-3 ovarian", "growth [%]": -84.8}
{"compound": "O=C1c2ccccc2C(=O)c2c1oc1ccc3ccccc3c21", "study_target": "OVCAR-3 ovarian", "growth [%]": 39.4}
{"compound": "O=C1/C(=C\\c2cccn2Cc2ccc(Cl)cc2)c2ccccc2N1c1c(Cl)cccc1Cl", "study_target": "OVCAR-3 ovarian", "growth [%]": 82.3}
{"compound": "COc1cc(C2CC(c3cccc(Nc4ccnc5cc(Cl)ccc45)c3)=NN2c2ccc(Cl)cc2)cc(OC)c1OC (configuration not stated)", "study_target": "OVCAR-3 ovarian", "growth [%]": 83.3}
{"compound": "COc1ccc(C2=Nn3c(nnc3-c3ccc(Cl)cc3N)SC2)cc1", "study_target": "OVCAR-3 ovarian", "growth [%]": 114}
{"compound": "CSCCC1NC(=O)C(C(C)=Nc2ccccc2)=C1O (configuration not stated)", "study_target": "OVCAR-3 ovarian", "growth [%]": 117}
{"compound": "COc1ccc(-c2nsc3c2NC(=O)CC3c2ccc3c(c2)OCO3)cc1 (configuration not stated)", "study_target": "OVCAR-3 ovarian", "growth [%]": -26.3}

In: Enter reported growth observed with OVCAR-3 ovarian for `C=C(C)c1ccc(/C=N/NC(N)=S)cc1`
Out: 101

In: Here is the next compound: `Cc1cc(C)cc(Nc2cc(C)nc3nc(C(F)(F)F)nn23)c1`
Out: 8.97

In: Query `c1ccc(C(CC2=NCCCN2)c2ccccc2)cc1` next
Out: 117

In: Now the same for Cc1ccccc1N1C(c2ccccc2)=NNC12C=CC(=O)c1c(O)cccc12 (configuration not stated)
Out: 60.5

In: Can you handle CC1=C(C(=O)Nc2ccc(F)cc2)C(c2ccc(C)cc2)C2=C(CC(C)(C)CC2=O)N1 (configuration not stated) next?
Out: 92.7

In: Further, for `Fc1cnccc1-c1nc2ccc3[nH]ncc3c2c2c1CCCC2` ?
Out: 30.4

In: Another compound: `Cc1cc(Cl)c2ccc(N(C)C)cc2n1`
Out: 104

In: Cool, now `CCNC(=S)N(Cc1ccccc1)Cc1ccccc1`
Out: 123

In: Then `N[C@@H](CO)C(=O)O` ?
Out: 98.4

In: Also `CC(=O)[C@H]1CC[C@H]2[C@@H]3CC[C@H]4CC=CC[C@]4(C)[C@H]3CC[C@]12C` , if possible.
Out: 122

In: Repeat for the following compound: `O=C1/C(=C\c2cccn2C(=O)c2ccccc2)c2ccccc2N1c1c(Cl)cccc1Cl`
Out: 70.4

In: Item: `O=C(CCc1nc2sc3c(c2c(=O)[nH]1)CCC3)NCc1cn(-c2ccccc2)nc1-c1ccccc1`
Out: 16.9

In: Also `O=C(Nc1ccc(Br)cc1)Nc1ccccc1Cl` , if possible.
Out: 88.1

In: Could you do the same for `COc1ccc(-n2nc(C(=O)NCC(=O)Nc3nc4cc(OC)ccc4s3)c3ccccc3c2=O)cc1` , please?
Out: 3.53

* * *

Test system: T-47D breast
method_description: NCI-60 one-dose screen, 48 h (100 = growth as untreated, 0 = no growth, -100 = all killed)
conditions: 10 µM unless noted
About 83,000 compounds went through this panel and 20% of them were active in at least one assay; those are over-represented in the sample as a whole.
Please use Y whenever growth is not below 90%, and N whenever it is.

{"structure_smiles_string": "COc1ccc(OC)c(Nc2nc(-c3c(C)nc4sccn34)cs2)c1", "label_value": "N"}
{"structure_smiles_string": "C=C(C)[C@@H]1CC[C@]2(C)[C@H](CC=C3[C@@H]4C[C@](C)(C(=O)N5CCN(C)CC5)CC[C@]4(C)CC[C@]32C)[C@@]1(C)CCC#N", "label_value": "N"}
{"structure_smiles_string": "CCCc1n(Cc2ccc3ccccc3n2)cc[n+]1Cc1ccc2ccccc2c1", "label_value": "N"}

Okay, now this compound:
In: Assess whether reported growth for `FC(F)(F)C1=NNC(c2ccc3ccccc3c2)=NN1` sits at 90% or higher.
Out: Y

* * *

Test system: SW-620 colon
method_description: NCI-60 one-dose screen, 48 h (100 = growth as untreated, 0 = no growth, -100 = all killed)
conditions: 10 µM unless noted
The panel holds about 83,000 compounds, 20% with a hit somewhere; the sample as a whole holds those more often.
Could you label it true (1) if measured growth is 80% or higher, and false (0) otherwise?

{"compound": "CCOC(=O)c1ccccc1SC(C[N+](=O)[O-])c1ccccc1 (stereo unspecified)", "study_target": "SW-620 colon", "label_value": "false (0)"}
{"compound": "CC(=O)[C@H]1CC[C@H]2[C@@H]3CC[C@H]4CC=CC[C@]4(C)[C@H]3CC[C@]12C", "study_target": "SW-620 colon", "label_value": "true (1)"}
{"compound": "CC(COC(=O)c1ccccc1)N1CC2CCC(C1)O2 (stereo unspecified)", "study_target": "SW-620 colon", "label_value": "true (1)"}
{"compound": "FC(F)(F)C1=NNC(c2ccc3ccccc3c2)=NN1", "study_target": "SW-620 colon", "label_value": "true (1)"}
{"compound": "COCCOCCOCc1n(Cc2ccc3ccccc3n2)c2ccccc2[n+]1Cc1ccc2ccccc2c1", "study_target": "SW-620 colon", "label_value": "false (0)"}

In: Exam item: decide whether the reported growth for `C=C(C)c1ccc(/C=N/NC(N)=S)cc1` is at least 80%.
Out: true (1)

In: Try this compound too: `c1ccc(-c2[nH]c3ccccc3c2-c2ccccc2)cc1`
Out: true (1)

In: Moving on to COc1ccc(C(=O)C(C#N)c2cc(OC)c(OC)c(OC)c2)cc1 (stereo unspecified)
Out: true (1)

In: Another compound to check: `CN1CCN(Cc2ccc(NC(=O)c3ccc(C#N)c(C#Cc4cnc(N)c5ncccc45)c3)cc2C(F)(F)F)CC1`
Out: false (0)

In: Could you do the same for `COc1ccc2cc(-c3nc(C)c(C(C)=O)c(-c4ccc(C)cc4)n3)ccc2c1` , please?
Out: true (1)

In: Similarly, `O=C(O)c1cn(-c2ccccc2)nc1-c1ccc(O)cc1` ?
Out: true (1)

In: Then COc1cc(C2=NOC(c3cc(OC)c(OC)c(OC)c3)C2)ccc1OCCCCOc1cc2c(cc1OC)C(=O)N1CCC[C@H]1C=N2 (stereo partly specified) ?
Out: false (0)

* * *

Item-by-item account of growth
System: K-562 leukemia
method_description: NCI-60 one-dose screen, 48 h (100 = growth as untreated, 0 = no growth, -100 = all killed)
conditions: 10 µM unless noted
About 83,000 compounds went through this panel and 20% of them were active in at least one assay; those are over-represented in the sample as a whole.
Numeric answer only, unit % assumed.

Before answering, review these 2 worked examples.
{"compound": "CC1CCN(Cc2ccc(NC(=O)c3cc4ccc5cccnc5c4[nH]3)cc2)CC1", "growth / %": 8.98}
{"compound": "CCc1ccc2c(c1)N(CCO)C1=C(C(=O)OC1)C2c1cccc(Cl)c1 (stereo not drawn)", "growth / %": 13.3}

Kindly review the next compound as well.
In: Can you share its growth? I mean this compound: `O=c1cc(-c2ccc3c(c2)OCCO3)oc2cc(Cl)ccc12`
Out: 35.1

* * *

Test system: RPMI-8226 leukemia
method_description: NCI-60 one-dose screen, 48 h
conditions: 10 µM unless noted
The panel holds about 83,000 compounds, 20% with a hit somewhere; the sample as a whole holds those more often. Calls of active or inactive are those of the source. Rule for the calls: active = growth percent below 10; inactive = the rest.
Output constraint: value belongs to TRUE (active), FALSE (inactive)

{"molecule": "O=C(/C=C/c1ccccc1)C(Br)C(Br)c1ccccc1 (stereo not drawn)", "study_target": "RPMI-8226 leukemia", "label_value": "TRUE"}
{"molecule": "COc1ccc([C@@H]2[C@@H](Oc3ccccc3)C(=O)N2c2cc(OC)c(OC)c(OC)c2)cc1F", "study_target": "RPMI-8226 leukemia", "label_value": "TRUE"}

Field: next molecule
In: Record lookup: outcome of this test for CC(C)CC(NC(=O)C(CCCN=C(N)N)NC(=O)OCc1ccccc1)C(=O)NC(CNC(=O)/C=C/c1ccccc1)C(C)C (stereo not drawn) ?
Out: FALSE
